- assayTarget: T1, TIM-3 protein on human peripheral blood mononuclear lymphocytes (PBMC) (human, UniProt Q8TDQ0 22-301)
- T1 sequence: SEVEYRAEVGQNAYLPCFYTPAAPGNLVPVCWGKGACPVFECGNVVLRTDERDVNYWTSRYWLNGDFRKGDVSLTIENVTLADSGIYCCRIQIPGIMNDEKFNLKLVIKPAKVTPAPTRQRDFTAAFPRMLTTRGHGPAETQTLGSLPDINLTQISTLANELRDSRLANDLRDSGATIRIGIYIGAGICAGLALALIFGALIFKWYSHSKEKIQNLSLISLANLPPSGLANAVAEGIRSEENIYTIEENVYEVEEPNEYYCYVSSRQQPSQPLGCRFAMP
- assay: cell-based or functional assay
reportedEndpoint: IFN-γ production (donor X); antibody '0' (4th head as printed), N = 2 (pg/mL)
// return numeric value only (unit: pg/mL, not printed)

Some solved cases for reference:
# query: IFN-γ production (donor X); antibody '0' (4th head as printed), N = 2 of entry 34B6D8 fully human TIM-3 antibody (human IgG4, kappa) (antibody, V domains shown) VH: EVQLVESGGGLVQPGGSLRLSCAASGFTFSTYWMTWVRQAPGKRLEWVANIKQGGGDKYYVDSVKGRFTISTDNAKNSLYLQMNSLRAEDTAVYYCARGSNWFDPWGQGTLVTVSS VL: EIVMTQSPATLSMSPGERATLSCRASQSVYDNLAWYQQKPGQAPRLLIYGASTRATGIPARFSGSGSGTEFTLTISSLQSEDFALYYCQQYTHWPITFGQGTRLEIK
2540

# query: IFN-γ production (donor X); antibody '0' (4th head as printed), N = 2 of entry 18D2H2 fully human TIM-3 antibody (human IgG4, kappa) (antibody, V domains shown) VH: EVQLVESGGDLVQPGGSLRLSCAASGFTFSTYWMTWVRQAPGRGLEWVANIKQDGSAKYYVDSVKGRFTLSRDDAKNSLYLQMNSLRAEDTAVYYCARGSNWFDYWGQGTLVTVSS VL: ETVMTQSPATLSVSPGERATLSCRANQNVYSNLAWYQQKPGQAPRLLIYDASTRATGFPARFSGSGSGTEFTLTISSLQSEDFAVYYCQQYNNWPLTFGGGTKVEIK
2590

# query: IFN-γ production (donor X); antibody '0' (4th head as printed), N = 2 of entry 39E5H1 fully human TIM-3 antibody (human IgG4, kappa) (antibody, V domains shown) VH: EVQLVESGGGLVQPGGSLRLSCAASGFTFSSYWMSWVRQAPGKGLEWVANIKRGGSERYYVDSVKGRFTISGDNAKNSVYLQMNSLRAEDTAVYYCARGSNWFDPWGQGTLVTVSS VL: ETVMTQSPAILSVSPGERATLSCRASQSVYSNLAWYQQKLGQAPRLLIYDASTRATGIPARFSGSGSGTEFTLTISSLQSEDFAVYYCQQYNNWPITFGQGTRLEIK
2460

Others:
# query: IFN-γ production (donor X); antibody '0' (4th head as printed), N = 2 of entry 7A4F10 fully human TIM-3 antibody (human IgG4, kappa) (antibody, V domains shown) VH: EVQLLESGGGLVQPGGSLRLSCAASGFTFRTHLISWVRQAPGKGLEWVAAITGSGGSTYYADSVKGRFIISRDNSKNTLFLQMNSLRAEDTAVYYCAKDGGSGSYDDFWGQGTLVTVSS VL: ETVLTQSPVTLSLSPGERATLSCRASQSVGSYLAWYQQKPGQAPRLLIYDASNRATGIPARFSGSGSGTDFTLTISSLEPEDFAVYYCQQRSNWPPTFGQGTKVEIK
2370

# query: IFN-γ production (donor X); antibody '0' (4th head as printed), N = 2 of entry 134H3G6 fully human TIM-3 antibody (human IgG4, kappa) (antibody, V domains shown) VH: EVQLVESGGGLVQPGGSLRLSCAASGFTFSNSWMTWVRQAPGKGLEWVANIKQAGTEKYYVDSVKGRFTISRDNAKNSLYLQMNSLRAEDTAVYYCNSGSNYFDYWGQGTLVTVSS VL: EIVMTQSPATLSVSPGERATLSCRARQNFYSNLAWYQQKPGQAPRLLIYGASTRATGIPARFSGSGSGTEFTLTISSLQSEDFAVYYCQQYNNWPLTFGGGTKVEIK
2430

# query: IFN-γ production (donor X); antibody '0' (4th head as printed), N = 2 of entry 57F4E5 fully human TIM-3 antibody (human IgG4, kappa) (antibody, V domains shown) VH: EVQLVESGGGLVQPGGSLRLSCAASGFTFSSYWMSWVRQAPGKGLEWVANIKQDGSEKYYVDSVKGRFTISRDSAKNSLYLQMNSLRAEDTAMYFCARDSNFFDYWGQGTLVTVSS VL: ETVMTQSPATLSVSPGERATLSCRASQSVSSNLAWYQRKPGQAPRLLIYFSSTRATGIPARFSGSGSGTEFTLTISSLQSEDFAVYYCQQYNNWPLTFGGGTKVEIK
2740
